SYSTEM: UniProtKB Q9NR97
PROTOCOL SUMMARY: HEK293-Blue-hTLR-8 cells assay (SEAP reporter, R848 stimulation)
CONDITION INFO: HEK293-Blue-hTLR8 cells, R848 ligand, 20 hrs incubation

{"COMPOUND": "C[C@@H]1CN(c2ccc(C#N)n3nccc23)C[C@H](CN2CCNCC2)O1 [Example 5]", "SYSTEM": "UniProtKB Q9NR97", "IC50 / nM": 78}
{"COMPOUND": "C[C@@H]1CN(c2ccc(C#N)n3nccc23)C[C@H](CN2CC3CCC(C2)N3)O1 [Example 31]", "SYSTEM": "UniProtKB Q9NR97", "IC50 / nM": 97}
{"COMPOUND": "C[C@@H]1CN(c2ccc(C#N)n3nccc23)C[C@H](CN2CCC(C)(N)CC2)O1 [Example 29]", "SYSTEM": "UniProtKB Q9NR97", "IC50 / nM": 52}
{"COMPOUND": "C[C@@H]1CN(c2ccc(C#N)n3nccc23)C[C@H](CN2CCC3(CCCCN3)CC2)O1 [Example 47]", "SYSTEM": "UniProtKB Q9NR97", "IC50 / nM": 31}
{"COMPOUND": "C[C@@H]1CN(c2ccc(C#N)n3nccc23)C[C@H](CN2CCC3(CCCCN3)C2)O1 (some centres unmarked) [Example 42]", "SYSTEM": "UniProtKB Q9NR97", "IC50 / nM": 65}
{"COMPOUND": "C[C@@H]1CN(c2ccc(C#N)n3nccc23)C[C@H](CN2CCC3(CCNCC3)CC2)O1 [Example 3]", "SYSTEM": "UniProtKB Q9NR97", "IC50 / nM": 620}
{"COMPOUND": "C[C@@H]1CN(c2ccc(C#N)n3nccc23)C[C@H](CN2C3CCCC2CC(N)C3)O1 (some centres unmarked) [Example 65]", "SYSTEM": "UniProtKB Q9NR97", "IC50 / nM": 64}
{"COMPOUND": "C[C@@H]1CN(c2ccc(C#N)n3nccc23)C[C@H](CN2CCN(C3CCNCC3)CC2Cc2ccccc2)O1 (some centres unmarked) [Example 77]", "SYSTEM": "UniProtKB Q9NR97", "IC50 / nM": 130}

* * *

SYSTEM: human TLR8 (Homo sapiens)
Sequence (Q9NR97 27-1041): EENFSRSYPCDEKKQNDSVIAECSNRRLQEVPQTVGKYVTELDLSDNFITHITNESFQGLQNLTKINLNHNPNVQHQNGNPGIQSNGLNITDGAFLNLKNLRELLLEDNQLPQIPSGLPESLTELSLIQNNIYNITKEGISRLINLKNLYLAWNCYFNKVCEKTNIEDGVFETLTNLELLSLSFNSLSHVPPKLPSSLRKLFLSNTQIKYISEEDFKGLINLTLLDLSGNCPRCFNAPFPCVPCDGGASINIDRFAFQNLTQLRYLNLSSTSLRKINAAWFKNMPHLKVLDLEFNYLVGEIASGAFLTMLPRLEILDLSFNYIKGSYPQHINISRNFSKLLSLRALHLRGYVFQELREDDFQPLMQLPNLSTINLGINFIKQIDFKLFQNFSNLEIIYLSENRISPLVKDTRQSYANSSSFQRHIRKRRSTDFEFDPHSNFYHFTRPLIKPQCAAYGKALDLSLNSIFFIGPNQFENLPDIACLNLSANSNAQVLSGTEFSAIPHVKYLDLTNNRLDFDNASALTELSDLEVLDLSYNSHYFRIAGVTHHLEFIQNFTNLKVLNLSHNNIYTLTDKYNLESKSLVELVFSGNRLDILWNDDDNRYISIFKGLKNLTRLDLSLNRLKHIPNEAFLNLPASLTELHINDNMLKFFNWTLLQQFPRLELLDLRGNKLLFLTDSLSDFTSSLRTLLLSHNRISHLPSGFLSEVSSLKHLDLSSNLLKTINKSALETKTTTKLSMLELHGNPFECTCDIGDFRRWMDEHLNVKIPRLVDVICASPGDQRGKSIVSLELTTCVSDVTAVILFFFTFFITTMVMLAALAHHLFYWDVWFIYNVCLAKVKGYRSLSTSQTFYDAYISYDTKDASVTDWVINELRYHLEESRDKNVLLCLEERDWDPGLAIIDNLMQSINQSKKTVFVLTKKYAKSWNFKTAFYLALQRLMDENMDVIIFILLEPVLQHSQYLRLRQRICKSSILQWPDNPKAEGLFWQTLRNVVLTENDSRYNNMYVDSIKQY
PROTOCOL SUMMARY: HEK293-Blue-hTLR-8 cells assay (SEAP reporter, R848 stimulation)
CONDITION INFO: HEK293-Blue-hTLR8 cells, R848 ligand, 20 hrs incubation
So basically, if IC50 comes in under 200 nM it's fulfilled, and if it's 200 nM or more it's not fulfilled.

{"MOLECULE": "C[C@@H]1CN(c2ccc(C#N)n3nccc23)C[C@H](CN2CCC3(CCN3)CC2)O1", "CATEGORY": "fulfilled"}
{"MOLECULE": "C[C@@H]1CN(c2ccc(C#N)n3nccc23)C[C@H](CN2CC3CCNCC3C2)O1 (some centres unmarked)", "CATEGORY": "fulfilled"}
{"MOLECULE": "C[C@@H]1CN(c2ccc(C#N)n3nccc23)C[C@H](CN2CC3CNCCC32)O1 (some centres unmarked)", "CATEGORY": "fulfilled"}
{"MOLECULE": "C[C@@H]1CN(c2ccc(C#N)n3nccc23)C[C@H](CN2CC3(CCCNCC3)C2)O1", "CATEGORY": "fulfilled"}
{"MOLECULE": "C[C@@H]1CN(c2ccc(C#N)n3nccc23)C[C@H](CN2CCC(N)CC2)O1", "CATEGORY": "fulfilled"}
{"MOLECULE": "C[C@@H]1CN(c2ccc(C#N)n3nccc23)C[C@H](CN2CCNC3(CC3)C2)O1", "CATEGORY": "fulfilled"}
{"MOLECULE": "C[C@@H]1CN(c2ccc(C#N)n3nccc23)C[C@H](CN2CCC3(CCNC3)CC2)O1", "CATEGORY": "not fulfilled"}
{"MOLECULE": "C[C@@H]1CN(c2ccc(C#N)n3nccc23)C[C@H](CN2CC3(CC(N)C3)C2)O1", "CATEGORY": "not fulfilled"}

* * *

SYSTEM: human TLR8 (Homo sapiens)
PROTOCOL SUMMARY: HEK293-Blue-hTLR-8 cells assay (SEAP reporter, R848 stimulation)
CONDITION INFO: HEK293-Blue-hTLR8 cells, R848 ligand, 20 hrs incubation
pIC50: −log10 of the molar value.
Decide using pIC50: a value greater than or equal to 7 is True, a smaller one is False.

{"COMPOUND": "C[C@@H]1CN(c2ccc(C#N)n3nccc23)C[C@H](CN2CCC(N3CCN(C)CC3)CC2)O1", "CATEGORY": "True"}
{"COMPOUND": "C[C@@H]1CN(c2ccc(C#N)n3nccc23)C[C@H](CN2CC(N)C(F)(F)C2)O1 (some centres unmarked)", "CATEGORY": "False"}
{"COMPOUND": "C[C@@H]1CN(c2ccc(C#N)n3nccc23)C[C@H](CN2CCCC3CNCC32)O1 (some centres unmarked)", "CATEGORY": "False"}
{"COMPOUND": "C[C@@H]1CN(c2ccc(C#N)n3nccc23)C[C@H](CN2CC3CCCNC3C2)O1 (some centres unmarked)", "CATEGORY": "False"}
{"COMPOUND": "C[C@@H]1CN(c2ccc(C#N)n3nccc23)C[C@H](CN2CCC(N3CCCC3)CC2)O1", "CATEGORY": "True"}
{"COMPOUND": "C[C@@H]1CN(c2ccc(C#N)n3nccc23)C[C@H](CN2CCC(CN)CC2)O1", "CATEGORY": "False"}
{"COMPOUND": "C[C@@H]1CN(c2ccc(C#N)n3ncc(F)c23)C[C@H](CN2CCCC3(CCNC3)C2)O1 (some centres unmarked)", "CATEGORY": "True"}
{"COMPOUND": "C[C@@H]1CN(c2ccc(C#N)n3nccc23)C[C@H](CN2CCNCC2Cc2ccccc2)O1 (some centres unmarked)", "CATEGORY": "True"}

* * *

SYSTEM: human TLR9 (Homo sapiens, UniProt Q9NR96)
Sequence (Q9NR96 26-1032): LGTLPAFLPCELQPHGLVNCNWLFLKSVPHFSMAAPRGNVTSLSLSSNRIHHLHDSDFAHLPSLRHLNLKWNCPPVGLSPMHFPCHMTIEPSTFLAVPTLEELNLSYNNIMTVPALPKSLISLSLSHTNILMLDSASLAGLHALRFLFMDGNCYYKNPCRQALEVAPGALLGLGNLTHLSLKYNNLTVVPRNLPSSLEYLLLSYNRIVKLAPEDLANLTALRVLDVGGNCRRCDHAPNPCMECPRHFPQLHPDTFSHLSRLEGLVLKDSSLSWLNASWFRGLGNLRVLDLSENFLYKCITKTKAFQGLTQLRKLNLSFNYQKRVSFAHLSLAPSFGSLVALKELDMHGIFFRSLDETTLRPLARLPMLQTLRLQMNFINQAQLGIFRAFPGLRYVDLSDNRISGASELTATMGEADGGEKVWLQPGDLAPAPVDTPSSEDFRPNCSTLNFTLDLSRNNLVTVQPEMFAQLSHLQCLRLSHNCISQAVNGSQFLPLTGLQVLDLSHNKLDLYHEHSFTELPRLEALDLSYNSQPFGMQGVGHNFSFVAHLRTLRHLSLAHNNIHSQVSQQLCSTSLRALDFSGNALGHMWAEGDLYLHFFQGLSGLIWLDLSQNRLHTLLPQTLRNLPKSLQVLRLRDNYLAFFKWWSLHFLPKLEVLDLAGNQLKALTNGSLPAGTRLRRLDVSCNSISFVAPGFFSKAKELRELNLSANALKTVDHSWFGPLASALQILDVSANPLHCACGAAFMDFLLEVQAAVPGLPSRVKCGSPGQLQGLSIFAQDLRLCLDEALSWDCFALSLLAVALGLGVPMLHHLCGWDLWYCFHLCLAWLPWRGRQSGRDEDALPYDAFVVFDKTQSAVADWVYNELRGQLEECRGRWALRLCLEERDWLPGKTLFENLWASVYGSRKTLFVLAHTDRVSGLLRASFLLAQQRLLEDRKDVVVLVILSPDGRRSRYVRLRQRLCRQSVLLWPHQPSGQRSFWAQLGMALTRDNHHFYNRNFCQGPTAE
PROTOCOL SUMMARY: HEK293-Blue-hTLR-9 cells assay (SEAP reporter, ODN2006 stimulation)
CONDITION INFO: HEK293-Blue-hTLR9 cells, ODN2006 ligand, 20 hrs incubation
pIC50: −log10 of the molar value.

{"COMPOUND": "C[C@@H]1CN(c2ccc(C#N)n3nccc23)C[C@H](CN2CC3CCC(C2)N3)O1", "pIC50": 5.00}
{"COMPOUND": "CC1CNCCN1C[C@H]1CN(c2ccc(C#N)n3nccc23)C[C@@H](C)O1 (single isomer, unassigned) [Example 50A]", "pIC50": 4.80}
{"COMPOUND": "C[C@@H]1CN(c2ccc(C#N)n3nccc23)C[C@H](CN2CCC(CCN)CC2)O1", "pIC50": 6.57}
{"COMPOUND": "C[C@@H]1CN(c2ccc(C#N)n3nccc23)C[C@H](CN2CC3(CCNC3)CC2=O)O1 (stereo partly shown)", "pIC50": 4.92}
{"COMPOUND": "C[C@@H]1CN(c2ccc(C#N)n3nccc23)C[C@H](CN2CCC3(CC2)CNCCO3)O1", "pIC50": 6.74}
{"COMPOUND": "C[C@@H]1CN(c2ccc(C#N)n3nccc23)C[C@H](CN2CC3(CCCNCC3)C2)O1", "pIC50": 6.85}
{"COMPOUND": "C[C@@H]1CN(c2ccc(C#N)n3nccc23)C[C@H](CN2CCC3(CCCCN3)C2)O1 (stereo partly shown)", "pIC50": 5.77}
{"COMPOUND": "C[C@@H]1CN(c2ccc(C#N)n3nccc23)C[C@H](CN2CCCC3(CCNC3)C2)O1 (stereo partly shown)", "pIC50": 6.96}
{"COMPOUND": "C[C@@H]1CN(c2ccc(C#N)n3nccc23)C[C@H](CN2CCN[C@H](c3ccccc3)C2)O1", "pIC50": 5.72}
{"COMPOUND": "C[C@@H]1CN(c2ccc(C#N)n3nccc23)C[C@H](CN2C3CNCC2COC3)O1", "pIC50": 5.00}
{"COMPOUND": "C[C@@H]1CN(c2ccc(C#N)n3nccc23)C[C@H](CN2CC[C@H](N)[C@H](C)C2)O1", "pIC50": 6.66}
{"COMPOUND": "C[C@@H]1CN(c2ccc(C#N)n3nccc23)C[C@H](CNC2CCN(C)CC2)O1", "pIC50": 6.49}
{"COMPOUND": "C[C@@H]1CN(c2ccc(C#N)n3nccc23)C[C@H](CN2CCC3NCCC3C2)O1 (stereo partly shown)", "pIC50": 6.85}
{"COMPOUND": "C[C@@H]1CN(c2ccc(C#N)n3nccc23)C[C@H](CN2CC3CCNCC32)O1 (stereo partly shown)", "pIC50": 6.07}
{"COMPOUND": "C[C@@H]1CN(c2ccc(C#N)n3nccc23)C[C@H](CN2C3COCC2CC(N)C3)O1 (stereo partly shown)", "pIC50": 6.41}
{"COMPOUND": "CC1CN(C[C@H]2CN(c3ccc(C#N)n4nccc34)C[C@@H](C)O2)CCN1 (stereo partly shown)", "pIC50": 4.85}
